Cited source for all entries: the RNAGym collection of RNA variant scans (doi:10.7554/elife.80360)

B1: Hairpin Ribozyme (parent)
chain: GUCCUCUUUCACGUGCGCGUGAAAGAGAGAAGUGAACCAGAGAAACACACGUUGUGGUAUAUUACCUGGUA

Variants of: B1
assay_protocol: self-cleavage, relative activity (ratio to wild type); higher = more cleavage; co-transcriptional
self-cleavage of 0.2 or higher: y. Under 0.2: n.

| variant_designation | category_label |
| --- | --- |
| U2C C50U | y |
| C3G A26U | y |
| C10A U58A | y |
| G25A G57U | n |
| C38U G69C | n |
| G29C U60A | n |
| G13A A22C | y |
| G19A G51C | y |
| U9A G57C | n |
| G40A G68U | n |
| C4U C18A | y |
| A28G G68C | n |
| G40C A43U | n |
| G1C C18G | y |
| C50U U70C | y |
| U67G U70A | y |
| A23U A45C | n |
| A22G C37U | y |
| C6A U8A | y |
| G34A G69U | y |
| A35G U62G | n |
| G19U G57U | y |
| A11U A24G | y |
| C37A A64U | y |
| C18G G56A | n |
| A24G G69C | y |
| A35C U70C | y |
| G15U G51U | y |
| C46U G68A | n |
| C10G G42U | y |
| A11G U55C | n |
| A24U C66U | y |
| C16G A64C | n |
| G34A A35U | y |
| A11C C12G | y |
| C10U C18A | y |
| U8C C12A | n |
| C4A C37G | n |
| G54U U60G | y |
| A23U A43C | n |
| C3U G51A | y |
| C6A A45G | n |
| G13A C48A | n |
